Data export: IC50 values recorded with Peroxisome proliferator-activated receptor delta (Homo sapiens).
Sequence (Q03181 whole entry): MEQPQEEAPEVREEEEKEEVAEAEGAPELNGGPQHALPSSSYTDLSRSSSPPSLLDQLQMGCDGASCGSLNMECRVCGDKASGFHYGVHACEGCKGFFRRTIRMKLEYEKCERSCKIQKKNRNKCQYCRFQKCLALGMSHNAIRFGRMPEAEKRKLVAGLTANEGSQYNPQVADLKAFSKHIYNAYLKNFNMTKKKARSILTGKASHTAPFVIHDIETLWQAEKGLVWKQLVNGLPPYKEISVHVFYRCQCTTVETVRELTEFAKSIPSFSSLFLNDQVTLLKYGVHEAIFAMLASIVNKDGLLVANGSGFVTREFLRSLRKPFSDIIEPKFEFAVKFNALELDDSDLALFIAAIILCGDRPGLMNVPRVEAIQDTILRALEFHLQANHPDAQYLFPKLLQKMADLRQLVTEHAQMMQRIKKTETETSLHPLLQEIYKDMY
One number for each entry, in nM.

Solved entries:
INSERT INTO results (compound, system, reportedproperty, assayvalue) VALUES
  ('CCCCN(c1cccc(-c2ccc(Cl)cc2)c1C)S(=O)(=O)c1ccc(OC(C)C(=O)O)c(C2CCCCC2)c1 (stereo not given)', 'Peroxisome proliferator-activated receptor delta (Homo sapiens)', 'IC50', 15.8),
  ('CCCCN(c1cccc(-c2cccc(Cl)c2)c1C)S(=O)(=O)c1ccc(OC(C)C(=O)O)c(C)c1C (stereo not given)', 'Peroxisome proliferator-activated receptor delta (Homo sapiens)', 'IC50', 631),
  ('CCCCN(c1ccc(F)c(-c2ccc(Cl)cc2)c1)S(=O)(=O)c1ccc(OC(C)C(=O)O)c(C)c1C (stereo not given)', 'Peroxisome proliferator-activated receptor delta (Homo sapiens)', 'IC50', 200),
  ('CCCN(c1cccc(-c2ccc(Cl)cc2)c1C)S(=O)(=O)c1ccc(OC(C)C(=O)O)c(C)c1C (stereo not given)', 'Peroxisome proliferator-activated receptor delta (Homo sapiens)', 'IC50', 126),
  ('CCCCN(c1cc(-c2ccc(Cl)cc2)ccc1OC(F)(F)F)S(=O)(=O)c1ccc(OC(C)C(=O)O)c(C)c1C (stereo not given)', 'Peroxisome proliferator-activated receptor delta (Homo sapiens)', 'IC50', 3160),
  ('CCCCN(c1cccc(-c2ccc(C(F)(F)F)cc2)c1C)S(=O)(=O)c1ccc(OC(C)C(=O)O)c(C)c1C (stereo not given)', 'Peroxisome proliferator-activated receptor delta (Homo sapiens)', 'IC50', 15.8),
  ('CCCCN(c1cccc(-c2ccc(Cl)cc2)c1C)S(=O)(=O)c1ccc(O[C@H](C)C(=O)O)c(C)c1C', 'Peroxisome proliferator-activated receptor delta (Homo sapiens)', 'IC50', 25.1),
  ('CCCCN(c1cccc(-c2ccc(C(F)(F)F)cc2)c1Cl)S(=O)(=O)c1ccc(OC(C)C(=O)O)c(C)c1C (stereo not given)', 'Peroxisome proliferator-activated receptor delta (Homo sapiens)', 'IC50', 6.31);

Provide the reported IC50 of each entry below, same order.
1. CCCCN(c1cccc(-c2ccc(Cl)cc2)c1C)S(=O)(=O)c1ccc(OC(C)C(=O)O)c(OC)c1Cl (stereo not given)
2. CCCCN(c1cccc(-c2ccc(Cl)cc2)c1C)S(=O)(=O)c1ccc(OC(CCC)C(=O)O)c(C)c1C (stereo not given)

[158, 158]

###

- system: Peroxisome proliferator-activated receptor gamma (Homo sapiens, UniProt P37231)
- Sequence (P37231 whole entry): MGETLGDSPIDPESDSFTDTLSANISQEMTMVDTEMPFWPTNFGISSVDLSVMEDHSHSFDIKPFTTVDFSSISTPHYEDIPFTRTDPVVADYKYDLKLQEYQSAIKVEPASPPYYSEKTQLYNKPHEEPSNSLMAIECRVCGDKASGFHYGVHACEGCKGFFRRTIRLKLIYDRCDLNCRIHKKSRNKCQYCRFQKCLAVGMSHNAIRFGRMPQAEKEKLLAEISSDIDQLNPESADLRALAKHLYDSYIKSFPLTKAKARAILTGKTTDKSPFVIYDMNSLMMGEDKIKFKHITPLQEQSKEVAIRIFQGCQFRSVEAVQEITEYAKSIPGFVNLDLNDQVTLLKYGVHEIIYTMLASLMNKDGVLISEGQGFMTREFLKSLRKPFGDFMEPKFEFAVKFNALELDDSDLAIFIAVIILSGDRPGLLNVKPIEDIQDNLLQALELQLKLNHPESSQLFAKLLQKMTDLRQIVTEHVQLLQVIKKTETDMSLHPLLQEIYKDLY
Kindly supply the reported pIC50 values for the records listed here.
Numbers only, as −log10 of the molar value.

Would you please look over these solved cases?
INSERT INTO measurements (molecule, assayvalue) VALUES
  ('CCCCN(c1ccc(F)c(-c2ccc(Cl)cc2)c1)S(=O)(=O)c1ccc(OC(C)C(=O)O)c(C)c1C (configuration not stated)', 5.70),
  ('CCCCN(c1ccc(C)c(-c2ccc(Cl)cc2)c1)S(=O)(=O)c1ccc(OC(C)C(=O)O)c(C)c1C (configuration not stated)', 5.50),
  ('CCCCN(c1cc(-c2ccc(Cl)cc2)c(F)cc1C)S(=O)(=O)c1ccc(OC(C)C(=O)O)c(C)c1C (configuration not stated)', 5.10),
  ('CCCCN(c1cccc(-c2ccc(OC(F)(F)F)cc2)c1Cl)S(=O)(=O)c1ccc(OC(C)C(=O)O)c(C)c1C (configuration not stated)', 5.20),
  ('CCCCN(c1c(C)cc(C)c(-c2ccc(Cl)cc2)c1C)S(=O)(=O)c1ccc(OC(C)C(=O)O)c(C)c1C (configuration not stated)', 5.10),
  ('CCCCN(c1cccc(-c2ccc(Cl)cc2)c1C)S(=O)(=O)c1ccc(OCC(=O)O)c(C)c1C', 5.60);

Let me know recorded pIC50 for CCCCN(c1cc(-c2ccc(Cl)cc2)ccc1OC(F)(F)F)S(=O)(=O)c1ccc(OC(C)C(=O)O)c(C)c1C (configuration not stated) , thanks. 5.00

###

Record type: pEC50 measurement. Applies to: Peroxisome proliferator-activated receptor delta (Homo sapiens, UniProt Q03181)
Numbers only, as −log10 of the molar value.

// solved cases for pEC50 follow
INSERT INTO assay_data (molecule, assayvalue) VALUES
  ('CCCCN(c1ccc(F)c(-c2ccc(Cl)cc2)c1)S(=O)(=O)c1ccc(OC(C)C(=O)O)c(C)c1C (stereo not given)', 7.40),
  ('CCCCCN(c1cccc(-c2ccc(Cl)cc2)c1C)S(=O)(=O)c1ccc(OC(C)C(=O)O)c(C)c1C (stereo not given)', 6.40),
  ('CCCCN(c1cccc(-c2ccc(Cl)cc2)c1C)S(=O)(=O)c1ccc(OC(C)C(=O)O)c(F)c1Cl (stereo not given)', 6.40),
  ('CCCCN(c1cccc(-c2ccc(Cl)cc2)c1C)S(=O)(=O)c1ccc(OCC(=O)O)c(C)c1C', 8.70),
  ('CCCCN(c1cc(-c2ccc(Cl)cc2)cc(C(F)(F)F)c1)S(=O)(=O)c1ccc(OC(C)C(=O)O)c(C)c1C (stereo not given)', 7.00);

Field: pEC50. Fill in for each record below.
1. CCCCN(c1cccc(-c2ccc(OC(F)(F)F)cc2)c1Cl)S(=O)(=O)c1ccc(OC(C)C(=O)O)c(C)c1C (stereo not given)
2. Cc1c(-c2ccc(Cl)cc2)cccc1N(CC1CCC1)S(=O)(=O)c1ccc(OC(C)C(=O)O)c(C)c1C (stereo not given)
3. CCCCN(c1cccc(-c2ccc(OC(F)(F)F)cc2)c1C)S(=O)(=O)c1ccc(OC(C)C(=O)O)c(C)c1C (stereo not given)
4. CCCCN(c1cccc(-c2ccc(Cl)cc2)c1C)S(=O)(=O)c1ccc(OC(CC)C(=O)O)c(C)c1C (stereo not given)
5. CCCCN(c1cccc(-c2ccc(Cl)cc2)c1Cl)S(=O)(=O)c1ccc(OC(C)C(=O)O)c(C)c1C (stereo not given)
6. CCCCN(c1cc(-c2ccc(Cl)cc2)c(F)cc1C)S(=O)(=O)c1ccc(OC(C)C(=O)O)c(C)c1C (stereo not given)
7. CCCCN(c1cccc(-c2ccc(OC)cc2)c1C)S(=O)(=O)c1ccc(OC(C)C(=O)O)c(C)c1C (stereo not given)

8.60
6.30
7.40
6.90
8.00
5.50
7.40

Can you give me pEC50 for all of these, one by one?
1. COCCN(c1cccc(-c2ccc(Cl)cc2)c1C)S(=O)(=O)c1ccc(OC(C)C(=O)O)c(C)c1C (stereo not given)
2. CCCCN(c1cccc(-c2ccc(Cl)cc2)c1C)S(=O)(=O)c1ccc(OC(C)C(=O)O)c(C)c1C (stereo not given)

1: 6.30; 2: 7.60
